System: E. coli J53-KPCZA02
Criterion: MIC strictly under 30 µg/mL. Met: class 1. Not met: class 0.

Strictly below 30 µg/mL: is that where MIC of CO/N=C(\C(=O)N[C@@H]1C(=O)N2C(C(=O)[O-])=C(C[N+]3(C)CCCC3)CS[C@H]12)c1csc(N)n1 [FEP, cefepime] sits? class 0

Strictly below 30 µg/mL: is that where MIC of C[C@@H](O)[C@H]1C(=O)N2C(C(=O)O)=C(SCCN=CN)C[C@H]12 sits? class 1

Strictly below 30 µg/mL: is that where MIC of CO/N=C(\C(=O)N[C@@H]1C(=O)N2C(C(=O)O)=C(COC(N)=O)CS[C@H]12)c1ccco1 sits? class 0

Strictly below 30 µg/mL: is that where MIC of CCN1CCN(C(=O)N[C@@H](C(=O)N[C@@H]2C(=O)N3[C@@H]2SC(C)(C)[C@@H]3C(=O)O)c2ccccc2)C(=O)C1=O sits? class 0

Strictly below 30 µg/mL: is that where MIC of C[C@@H]1O[C@@H]1P(=O)(O)O sits? class 1

Strictly below 30 µg/mL: is that where MIC of C[C@@H](O)[C@H]1C(=O)N2C(C(=O)O)=C(S[C@@H]3CN[C@H](C(=O)N(C)C)C3)[C@H](C)[C@H]12 sits? class 1

Strictly below 30 µg/mL: is that where MIC of CC(C)(O/N=C(\C(=O)N[C@@H]1C(=O)N2C(C(=O)[O-])=C(C[n+]3ccccc3)CS[C@H]12)c1csc(N)n1)C(=O)O sits? class 0

###

Target: CMY-178 (Klebsiella pneumoniae, UniProt Q48434, DEL310-312/N366I/N90T)
Construct: were amplified without a signal peptide and cloned into the pET28a; His8 (N)
Experiment: Ki by direct competition assay with nitrocefin, CMY-178
Conditions: CMY-178; competition with 100 μM nitrocefin, 2-min incubation; mean ± SD
measured-metric: pKi
On this scale, pKi is minus log10 of a concentration expressed in M (mol/L).

What pKi appears in the records for this compound with CMY-178 (Klebsiella pneumoniae, UniProt Q48434, DEL310-312/N366I/N90T)? CC(C)(O/N=C(\C(=O)N[C@@H]1C(=O)N2C(C(=O)[O-])=C(C[n+]3ccccc3)CS[C@H]12)c1csc(N)n1)C(=O)O [CAZ, ceftazidime] 8.03

What pKi appears in the records for this compound with CMY-178 (Klebsiella pneumoniae, UniProt Q48434, DEL310-312/N366I/N90T)? C[C@]1(Cn2ccnn2)[C@H](C(=O)O)N2C(=O)C[C@H]2S1(=O)=O [TAZ, tazobactam] 5.60

###

measured-metric: log10(MIC) (log10 of the value in µg/mL)
Scale: decimal log of MIC, MIC in µg/mL.

What log10(MIC) appears in the records for this molecule with E. coli J53? C[C@H]1COc2c(N3CCN(C)CC3)c(F)cc3c(=O)c(C(=O)O)cn1c23 -1.52

What log10(MIC) appears in the records for this molecule with E. coli J53? NCC[C@H](O)C(=O)N[C@@H]1C[C@H](N)[C@@H](O[C@H]2O[C@H](CN)[C@@H](O)[C@H](O)[C@H]2O)[C@H](O)[C@H]1O[C@H]1O[C@H](CO)[C@@H](O)[C@H](N)[C@H]1O 0.30

What log10(MIC) appears in the records for this molecule with E. coli J53? CC(C)(O/N=C(\C(=O)N[C@@H]1C(=O)N2C(C(=O)[O-])=C(C[n+]3ccccc3)CS[C@H]12)c1csc(N)n1)C(=O)O -0.60

What log10(MIC) appears in the records for this molecule with E. coli J53? CCN1CCN(C(=O)N[C@@H](C(=O)N[C@@H]2C(=O)N3[C@@H]2SC(C)(C)[C@@H]3C(=O)O)c2ccccc2)C(=O)C1=O 0.60

What log10(MIC) appears in the records for this molecule with E. coli J53? C[C@@H](O)[C@H]1C(=O)N2C(C(=O)O)=C(S[C@@H]3CN[C@H](C(=O)N(C)C)C3)[C@H](C)[C@H]12 -1.52

What log10(MIC) appears in the records for this molecule with E. coli J53? C[C@@H](O)[C@H]1C(=O)N2C(C(=O)O)=C(SCCN=CN)C[C@H]12 -0.30

What log10(MIC) appears in the records for this molecule with E. coli J53? CO/N=C(\C(=O)N[C@@H]1C(=O)N2C(C(=O)[O-])=C(C[N+]3(C)CCCC3)CS[C@H]12)c1csc(N)n1 [FEP, cefepime] -1.22

src = paper PMC10100771
